- Test system: neuromuscular preparations (hemiinterseptum neuromuscule)
- protocolDescription: Muscle relaxation action: inhibition of nerve-evoked contraction of mouse neuromuscular preparation
- Format: cell-based, ddY mice
- conditionParameters: read-out: Muscle relaxation action IC50 (90% reliance)
reportedProperty: IC50 (µM)

>>> df
                                    molecule  datavalue
 0  C[N+](C)(C)CCOCc1ccc(COCC[N+](C)(C)C)cc1 [Example 12]        750
 1  CC(=O)OC(CCC[N+](C)(C)C)c1ccc(C(CCC[N+](C)(C)C)OC(C)=O)cc1 (centres unmarked) [Example 4]        450
 2  C[N+](C)(C)CCCCc1cccc(CCCC[N+](C)(C)C)c1 [Example 16]        531
 3  C[N+](C)(C)CCCC(=O)c1ccc(C(=O)CCC[N+](C)(C)C)cc1 [Example 2]         26
 4  C[N+](C)(C)CCCCc1ccccc1CCCC[N+](C)(C)C [Example 17]       59.7
 5  C[N+](C)(C)CCC#Cc1ccc(C#CCC[N+](C)(C)C)cc1 [Example 25]        110
 6  C[N+](C)(C)CCCc1ccc(-c2ccc(CCC[N+](C)(C)C)cc2)cc1 [Example 34]        132
 7  C[N+]1(CCCc2ccc(CCC[N+]3(C)CCCCC3)cc2)CCCCC1 [Example 7]        119
 8  C[N+](C)(C)CCCCc1ccc(CCCC[N+](C)(C)C)c([N+](=O)[O-])c1 [Example 23]       12.7
 9  C[N+](C)(C)CCCCCCc1ccc(CCCCCC[N+](C)(C)C)cc1 [Example 20]       15.9
10  C[N+](C)(C)CCCCc1ccc(CCCC[N+](C)(C)C)cc1 [Example 1]       22.8
